Where do these numbers come from? They come from patent US20110065760A1.

biological target: hPin1 (Homo sapiens); assay: protease-coupled PPIase assay, hPin1; format: biochemical; conditions: 6 nM hPin1, substrate Ac-Ala-Ala-Ser(PO3H2)-Pro-Arg-pNA, trypsin, pH 7.8, 6° C.; read-out: IC50 class, Target T-1 (hPin1)
Sequence (Q13526 whole entry): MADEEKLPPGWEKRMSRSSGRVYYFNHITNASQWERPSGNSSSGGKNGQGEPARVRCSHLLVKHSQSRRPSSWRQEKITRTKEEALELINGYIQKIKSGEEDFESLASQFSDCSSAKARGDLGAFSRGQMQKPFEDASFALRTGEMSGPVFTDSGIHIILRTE
READOUT_LABEL: IC50

• Cc1c(Cl)cc(NC(=O)NCCCCCCNC(=O)Nc2cc(Cl)c(C)c(Cl)c2O)c(O)c1Cl = < 1000 nM
• Oc1c(Cl)cc(NC(=S)Nc2ccccc2C(F)(F)F)cc1Cl = < 1000 nM
• O=C(Nc1cc(Cl)c(O)c(Cl)c1)c1ccco1 = < 1000 nM
• Oc1c(Cl)cccc1NCc1ccccc1Sc1ccc(Cl)cc1 = 1000 to 10000 nM
• Cc1c(Cl)cc(NCc2c(F)cccc2Cl)c(O)c1Cl = 10000 to 50000 nM

* * *

A collection of compounds and their measured EC50 at 48 h
assay: WST-1 cytotoxicity assay, HL-60; assay type: cell-based; details: human, HL-60 cells (acute myeloid leukemia); WST-1, 48 h incubation; read-out: EC50 class, cytotoxic effect, CL-1 (HL-60)
READOUT_LABEL: EC50 at 48 h

- O=C(NCCc1ccccc1)Nc1cc(Cl)c(O)c(NCc2ccccc2Sc2ccc(Cl)cc2)c1 [Compound 632]: < 10 µM
- O=C(NCc1ccccc1)Nc1cc(Cl)c(O)c(NCc2ccccc2Sc2ccc(Cl)cc2)c1 [Compound 631]: < 10 µM
- Cc1c(Cl)cc(NC(=S)Nc2ccccc2C(F)(F)F)c(O)c1Cl [Compound 261]: < 10 µM
- Cc1c(Cl)cc(NC(=S)Nc2ccc(C(F)(F)F)cc2)c(O)c1Cl [Compound 264]: < 10 µM
- Oc1c(Cl)cc(Cl)cc1NCc1ccccc1Sc1ccc(Cl)cc1 [Compound 329]: 10 to 50 µM
- Oc1c(NCc2ccccc2Sc2cccc(Cl)c2)ccc(F)c1F [Compound 403]: 10 to 50 µM
- CC(C)(C)CC(C)(C)NC(=O)Nc1cc(Cl)c(O)c(Cl)c1 [Compound 703]: 10 to 50 µM
- CC(C)=CC(=O)Nc1cc(Cl)c(O)c(Cl)c1 [Compound 1296]: 50 to 100 µM
- CC(C)NC(=S)Nc1cc(-c2nc3ccccc3s2)cc(Cl)c1O [Compound 639]: < 10 µM

* * *

Recorded measurements of pIC50, one per entry
target: UniProt P07858; test: cathepsin B assay; format: biochemical; conditions: 0.2 μg/ml cathepsin B, 2 mM Z-Arg-Arg-pNA, pH 5.8, 30° C., 30 min incubation; read-out: IC50 class, Target T-8 (Cathepsin)
pIC50: −log10 of the molar value.
READOUT_LABEL: pIC50

• CC(C)=CC(=O)Nc1cc(Cl)c(O)c(Cl)c1 [Compound 1296] = < 4.00
• Cc1c(Cl)cc(NCc2ccccc2C(F)(F)F)c(O)c1Cl [Compound 649] = 4.00 to 4.30
• CC(CC(=O)Nc1cc(Cl)c(O)c(Cl)c1)CC(C)(C)C (stereo not drawn) [Compound 1273] = < 4.00
• Cc1c(Cl)cc(NC(=O)NC(C)(C)CC(C)(C)C)c(O)c1Cl [Compound 102] = 4.00 to 4.30
• Cc1c(Cl)cc(NC(=O)CC(C)CC(C)(C)C)c(O)c1Cl (stereo not drawn) [Compound 599] = 4.00 to 4.30
• Cc1c(Cl)cc(NC(=S)Nc2ccc(C(F)(F)F)cc2)c(O)c1Cl [Compound 264] = < 4.00
• CC(C)(C)CC(C)(C)NC(=O)Nc1cc(Cl)c(O)c(Cl)c1 [Compound 703] = < 4.00
• Oc1c(NCc2ccccc2Sc2ccc(Cl)cc2)ccc(F)c1F [Compound 399] = 4.30 to 5.00
• Cc1c(Cl)cc(NCc2ccco2)c(O)c1Cl [Compound 646] = < 4.00
